The reported numbers originate from patent US20250243219A1.

target: cyclophilin D (Homo sapiens (Human)); experiment: Functional peptidyl prolyl isomerase (PPIase) spectrophotometric assay, cyclophilin D; settings: second value of CypA/D cell; read-out: Ki CypD
Sequence (P30405 30-207, species assumed): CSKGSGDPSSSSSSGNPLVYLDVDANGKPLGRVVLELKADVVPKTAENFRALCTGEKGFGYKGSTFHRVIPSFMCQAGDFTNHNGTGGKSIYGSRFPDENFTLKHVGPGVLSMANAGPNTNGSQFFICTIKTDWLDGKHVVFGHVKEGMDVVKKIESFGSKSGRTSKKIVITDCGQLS
pKi: −log10 of the molar value.
YES means recorded pKi is 7 or above; NO means it is below 7.

Answered examples (4):
INSERT INTO measurements (compound, system_name, class_label) VALUES
  ('CC(C)[C@@H]1OC(=O)C(C)(C)/C=C/c2ccc3ccc(nc3c2)N(C)NC(=O)[C@@H]2CCCN(N2)C(=O)[C@H](Cc2ccncc2)NC1=O [Compound (78)]', 'cyclophilin D (Homo sapiens (Human))', 'NO'),
  ('CC(C)[C@H]1OC(=O)C(C)(C)/C=C/c2ccc3ccc(nc3c2)N(C)NC(=O)[C@@H]2CCCN(N2)C(=O)[C@H](C)NC1=O [Compound (3)]', 'cyclophilin D (Homo sapiens (Human))', 'NO'),
  ('CC(C)[C@@H]1OC(=O)C(C)(C)/C=C/c2ccc3ccc(nc3c2)N2CCCN2C(=O)[C@@H]2CCCN(N2)C(=O)[C@H](C)NC1=O [Compound (8)]', 'cyclophilin D (Homo sapiens (Human))', 'YES'),
  ('C[C@@H]1NC(=O)C(Cc2ccc(N)nc2)OC(=O)C(C)(C)/C=C/c2ccc3ccc(nc3c2)N(C)NC(=O)[C@@H]2CCCN(N2)C1=O (stereo partly drawn) [Compound (43)]', 'cyclophilin D (Homo sapiens (Human))', 'YES');

QUERY: Confirm if pKi reported for the compound CC(C)[C@@H]1OC(=O)[C@](C)(Cc2ccccc2)/C=C/c2ccc3ccc(nc3c2)N(C)NC(=O)[C@@H]2CCCN(N2)C(=O)[C@H](C)NC1=O [Compound (16)] is 7 or above.
RESULT: YES

====

target: cyclophilin A (Homo sapiens (Human), UniProt P62937); assay: Functional peptidyl prolyl isomerase (PPIase) spectrophotometric assay, cyclophilin A; conditions: first value of CypA/D cell
Sequence (P62937 whole entry, species assumed): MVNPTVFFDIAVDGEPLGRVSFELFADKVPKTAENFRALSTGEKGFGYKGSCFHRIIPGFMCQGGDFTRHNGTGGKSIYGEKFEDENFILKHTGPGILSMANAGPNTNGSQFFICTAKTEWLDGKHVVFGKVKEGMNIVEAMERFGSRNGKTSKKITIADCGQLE
parameter: Ki

Worked cases, Ki given:
INSERT INTO results (smiles_str, measured_value) VALUES
  ('CC(C)[C@H]1CC(=O)C(C)(C)/C=C/c2ccc3ccc(nc3c2)N(C)NC(=O)[C@@H]2CCCN(N2)C(=O)[C@H](C)NC1=O', '320 nM'),
  ('CC(C)[C@@H]1OC(=O)C(C)(C)/C=C/c2ccc3ccc(nc3c2)N(C)NC(=O)[C@@H]2CCCN(N2)C(=O)[C@H](CCC(=O)NC2CCN(C)CC2)NC1=O', '51 nM'),
  ('CC(=O)N1CCC[C@@H](C[C@@H]2OC(=O)C(C)(C)/C=C/c3ccc4ccc(nc4c3)N(C)NC(=O)[C@@H]3CCCN(N3)C(=O)[C@H](C)NC2=O)C1', '51 nM'),
  ('CC(C)C(=O)N1CCN(C[C@@H]2OC(=O)C(C)(C)/C=C/c3ccc4ccc(nc4c3)N(C)NC(=O)[C@@H]3CCCN(N3)C(=O)[C@H](C)NC2=O)C[C@@H]1C', '61 nM');

Continue with the next compound.
QUERY: Would you mind telling me what Ki value was observed for "CC(C)[C@@H]1OC(=O)C(C)(C)/C=C/c2ccc3ccc(nc3c2)N(C)NC(=O)[C@@H]2CCCN(N2)C(=O)[C@H](CCC(=O)N2CCNCC2)NC1=O" ?
RESULT: 34 nM

====

assay: Pharmacokinetics in mice, oral dose; assay type: in vivo, mice (strain FVB/N); conditions: FVB/N, mouse, whole blood; oral 10 mg/kg; read-out: T1/2 Whole blood (converted)
parameter: half-life (h)
# number only, unit h dropped from output

QUERY: Would you mind telling me what half-life value was observed for "CC(C)[C@@H]1OC(=O)C(C)(C)/C=C/c2ccc3ccc(nc3c2)N(C)NC(=O)[C@@H]2CCCN(N2)C(=O)[C@H](C)NC1=O" ?
RESULT: 5.45
